Hey, just so you know, these numbers are from patent US5389638A.

Tested on: dopamine uptake
Experiment: inhibition of [3H]-amine uptake by synaptosome preparations, striatum (dopamine)
Assay type: biochemical, rat (male Sprague-Dawley)
Condition parameters: striatum synaptosomes, [3H]-amine approx. 100 nM, 4 min, 37° C.; read-out: Biogenic amine uptake IC50 DA
Where a name gives a salt, the structure may show the parent alone.
Please respond with reported pIC50 for every item in the list.
Numbers only, as −log10 of the molar value.

Answered examples (3):
CN(CCc1ccccc1)CC1c2ccc3c(c2CCN1C)OCO3 (stereo not shown) [Example 4, dihydrochloride]
4.61
CN(CCc1ccccc1)C[C@H]1c2ccc3c(c2CCN1C)OCO3 [Example 12, dihydrochloride]
4.59
COc1ccc2c(c1)CCN(C)C2CN1CCC(c2ccccc2)C1 (stereo not shown) [Example 1, dihydrochloride]
4.55

Let us move to another entry and its pIC50.
QUERY: Which pIC50 value belongs to CN1CCc2c(ccc3c2OCO3)[C@@H]1CN1CC[C@H](c2ccccc2)C1 [Example 8, dihydrochloride] ?
RESULT: 5.03
